Listed here: compounds with reported pKi for human Factor XIa (Homo sapiens (Human), UniProt P03951).
Counter-ions that a name gives are not always drawn.
Please note pKi is a logarithmic value: minus log10 of concentration in mol/L. Answer with that number alone.

Some compounds with recorded pKi:
[
  {
    "compound": "COC(=O)Nc1ccc2c(c1)NC(=O)CCCC[C@H](NC(=O)c1cnn(-c3cccc(Cl)c3F)c1)c1cc-2cnc1F [Example 32, TFA salt]",
    "pKi": 7.94
  },
  {
    "compound": "COC(=O)Nc1ccc2c(c1)NC(=O)CC/C=C/C[C@H](NC(=O)c1c[nH]c(-c3c(F)ccc(Cl)c3F)n1)c1nc-2c[nH]1",
    "pKi": 6.03
  },
  {
    "compound": "Cc1c(C(=O)N[C@H]2CCCCC(=O)Nc3cc(C(=O)N(C)C)ccc3-c3ccnc2c3)cnn1-c1cccc(Cl)c1F [Example 193, TFA salt]",
    "pKi": 5.53
  }
]

We now examine a further compound.
Param item = COC(=O)Nc1ccc2c(c1)NC(=O)CCCC[C@H](NC(=O)c1cnn(-c3cccc(Cl)c3F)c1)c1cc-2ccn1 [Example 21, TFA salt] ; retrieve measured pKi. 8.04

The reported measurements were obtained from patent US10208068B2.
